Molecular target: T1, EBV gp350 expressed on the surface of stably transfected CHO cells (Epstein-Barr virus, UniProt P03200 1-907)
T1 construct: also called native gp350; gp350 expressing CHO cells
T1 sequence: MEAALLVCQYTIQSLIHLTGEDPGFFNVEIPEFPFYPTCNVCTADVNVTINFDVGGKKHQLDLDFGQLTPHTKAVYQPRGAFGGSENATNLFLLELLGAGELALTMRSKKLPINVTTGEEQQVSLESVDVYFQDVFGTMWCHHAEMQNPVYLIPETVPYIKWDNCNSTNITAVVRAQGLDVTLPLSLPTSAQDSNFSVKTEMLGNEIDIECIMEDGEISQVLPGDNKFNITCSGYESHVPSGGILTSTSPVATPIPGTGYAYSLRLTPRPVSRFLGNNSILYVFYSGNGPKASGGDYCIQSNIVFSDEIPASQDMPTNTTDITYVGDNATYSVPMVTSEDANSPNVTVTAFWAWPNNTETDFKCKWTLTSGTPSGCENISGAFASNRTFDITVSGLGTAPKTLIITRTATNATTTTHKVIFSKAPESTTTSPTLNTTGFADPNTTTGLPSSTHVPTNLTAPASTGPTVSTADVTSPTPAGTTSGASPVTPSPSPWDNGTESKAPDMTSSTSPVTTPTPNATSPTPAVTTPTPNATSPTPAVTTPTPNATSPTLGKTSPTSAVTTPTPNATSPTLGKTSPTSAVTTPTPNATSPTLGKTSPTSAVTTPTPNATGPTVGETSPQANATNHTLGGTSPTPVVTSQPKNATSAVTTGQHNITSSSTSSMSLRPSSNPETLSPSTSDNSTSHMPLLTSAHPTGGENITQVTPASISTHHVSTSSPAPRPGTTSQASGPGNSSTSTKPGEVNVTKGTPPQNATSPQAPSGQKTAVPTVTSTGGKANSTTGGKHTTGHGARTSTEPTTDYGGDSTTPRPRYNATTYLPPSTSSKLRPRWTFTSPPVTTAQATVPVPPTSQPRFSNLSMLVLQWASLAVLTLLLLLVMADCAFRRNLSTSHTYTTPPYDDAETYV
Assay: cell competition (flow), unlabeled 125 µg/ml; competitor: biotinylated m72A1 1 µg/ml
Parameter measured: % inhibition of biotinylated nAbs

Binder: HB20 (antibody, V domains shown) VH: ELVKPGASVKLSCKASGYTFTSYWIQWVKQRPGQGLEWIGEINPTNGHTNYNEKFKTKATLTVDKSSSTAYMRLSSLTSEDSAVYYCARNLYYYGRPDYWGQGTSVTVSS VL: SSLSASLGDRVTISCRASQDIGNYLNWYQQKPDGTVKLLIYYTSRLHSGVPSRFSGSGSGTDYSLTISNLEQEDIATYFCQQGNALPPTFGGGTKLEIKR
Parameter measured: % inhibition of biotinylated nAbs
Observed measurement: 87%

Binder: HB17 (antibody, V domains shown) VH: AELVIPGASVKVSCKASGYTFTSYWIHWVKQWPGQGLEWIGEINPNNGHTNYNEKFKSKATLTVDKSSSTAYMQLSSLTSEDSAVYYCARNLFYYSRPDYWGQGTSVTVSS VL: SSLSASLGDRVTISCRASQDIGNYLNWYQQKPDGTIKLLIYYTSRLHSGVPSRFSGSGSGTDYSLTISNLEEEDIATYFCQQGNTLPPTFGGGTKLEIKR
Parameter measured: % inhibition of biotinylated nAbs
Observed measurement: 6%
